# measurement-target: factor Xa, human (Homo sapiens)
# Sequence (P00742 235-488 limits assumed): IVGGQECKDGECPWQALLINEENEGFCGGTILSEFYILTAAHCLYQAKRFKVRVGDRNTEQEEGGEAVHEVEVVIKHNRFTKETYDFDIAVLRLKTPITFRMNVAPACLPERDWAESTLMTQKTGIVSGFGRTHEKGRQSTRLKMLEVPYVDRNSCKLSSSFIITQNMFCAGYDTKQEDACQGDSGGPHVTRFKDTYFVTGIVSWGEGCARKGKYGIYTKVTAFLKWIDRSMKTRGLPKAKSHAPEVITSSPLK
# Sequence (P00742 41-179 limits assumed): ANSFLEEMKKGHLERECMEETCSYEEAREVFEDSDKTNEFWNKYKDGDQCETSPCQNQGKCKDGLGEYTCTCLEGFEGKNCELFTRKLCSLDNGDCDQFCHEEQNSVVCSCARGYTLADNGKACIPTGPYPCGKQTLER
# measurement-protocol: Inhibition of factor Xa (IC50, headed 'Affinity to Receptors')
# Type: biochemical
readout-type: pIC50
// scale note: pIC50 = -log10(conc_M); give the bare number

q: Write down the reported pIC50 of NC(=NO)c1cccc(N2CCCCC2C(=O)Nc2ccc(-c3ccccc3S(N)(=O)=O)cc2)c1 (stereo not shown) , test system: factor Xa, human (Homo sapiens).
a: 6.47
